This listing pairs compounds with measured melting point.

Field: example entries. Status: answers known.
>>> recorded_result("O=C(O)COc1c(Cl)cc(Cl)cc1Cl")
"180 to 183 °C"
>>> recorded_result("CN(Cc1ccc(NC(=O)C2=Cc3cc(-c4ccc5c(c4)CCO5)ccc3S(=O)(=O)CC2)cc1)C1CCOCC1")
"214 to 216 °C"
>>> recorded_result("C[C@@H]1[C@@H](N)CN1c1c(F)cc2c(=O)c(C(=O)O)cn3c2c1OC[C@H]3C")
"217 to 219 °C"
>>> recorded_result("O=C(NC1CCc2n[nH]cc2C1)[C@@H]1CCCN1C(=O)[C@@H](CC1CCCCC1)NS(=O)(=O)Cc1ccccc1 (stereo not given in full)")
"106 to 109 °C"

// melting point value for `CCCc1cccc2cc(C(=O)O)oc12` : 75 to 80 °C

###

OBSERVATION TYPE: melting point

Field: example entries. Status: answers known.
>>> recorded_result("O=C(NCC1CNc2ccccc2C1)OCc1ccccc1 (stereo not drawn)")
"115 to 116 °C"
>>> recorded_result("CCCC(=O)Nc1ccc(O)c(-c2ccno2)c1")
"238 °C"
>>> recorded_result("COCCOC[C@H](CC1(C(=O)O)CCCC1)C(=O)OC(C)(C)C")
"86 to 87 °C"
>>> recorded_result("O=C(c1ccc2cnccc2n1)N1CCc2ccccc2C1")
"98 to 100 °C"
>>> recorded_result("CN1C(C)(C)CC(OC(=O)CCc2cc(-n3nc4ccc(Cl)cc4n3)c(O)c(C(C)(C)C)c2)CC1(C)C")
"150 to 158 °C"
>>> recorded_result("CN(C(=O)CC(CCN1CCC(Cc2ccccc2)CC1)c1ccc(Cl)c(Cl)c1)c1ccc(Cl)cc1 (stereo not drawn)")
"67 to 72 °C"
>>> recorded_result("CN(C)CCCOc1ccc(C(=O)c2c(-c3ccccc3)oc3ccccc23)cc1")
"85 to 95 °C"
>>> recorded_result("O=c1cc(CCl)nc2ccn(-c3ccccc3)n12")
"194 to 196 °C"
>>> recorded_result("CC1(C)[C@H](c2nc(-c3ccc(F)cc3)no2)CC[C@]1(C)NCC(=O)N1C[C@@H](F)C[C@H]1C#N")
"160 to 163 °C"
>>> recorded_result("Clc1ccccc1-c1nc(-c2ccccc2)c(-c2ccccc2)n1Br")
"103 to 105 °C"

// melting point value for COC(=O)C(NC(CO)c1ccccc1)C1CC2CCC(C1)N2 (stereo not drawn) : 124 °C

// melting point value for `COc1c(Cc2ccccc2)cc(S(N)(=O)=O)c2ccccc12` : 159 to 161 °C

// melting point value for Cc1ccccc1C(=O)CN1C(=O)C(NC(=O)Nc2cccc(C(=O)O)c2)N=C(c2ccccc2F)c2cccc(C)c21 (stereo not drawn) : 168 to 176 °C

// melting point value for `CC(=O)Nc1nc2c(Oc3cc(-c4ccc(C(F)(F)F)cc4NCc4cncn4Cc4ccccc4)ncn3)cccc2s1` : 264 °C

###

OBSERVATION TYPE: melting point

// melting point value for `Cc1cccc(C)c1NC(=S)CC(=O)Nc1ccc(-c2ncn(-c3ccc(OC(F)(F)F)cc3)n2)cc1` : 178 to 182 °C

// melting point value for `CCOC(=O)c1nc2sc(C(=O)OCC)c(C)c2c(=O)[nH]1` : 237 to 238 °C

// melting point value for `O=C(C=Cc1cccc(-c2ccc(F)cc2)c1)Nc1ccc(CN2CCCCC2)cc1` : 166 to 167 °C

// melting point value for CN1C(=O)C(c2cccc(OCC3CC3)c2)(c2cnn(CC(F)(F)F)c2)N=C1N (stereo not given) : 78 to 80 °C

// melting point value for `CCO/C(C)=C(/C#N)C(N)=S` : 201 to 204 °C
